Recorded values, source patent US9475798B2.

Experimental Target: ER-α (Homo sapiens, UniProt P03372)
Construct: endogenous in cells; host or cells: MCF7
Sequence (P03372 whole entry): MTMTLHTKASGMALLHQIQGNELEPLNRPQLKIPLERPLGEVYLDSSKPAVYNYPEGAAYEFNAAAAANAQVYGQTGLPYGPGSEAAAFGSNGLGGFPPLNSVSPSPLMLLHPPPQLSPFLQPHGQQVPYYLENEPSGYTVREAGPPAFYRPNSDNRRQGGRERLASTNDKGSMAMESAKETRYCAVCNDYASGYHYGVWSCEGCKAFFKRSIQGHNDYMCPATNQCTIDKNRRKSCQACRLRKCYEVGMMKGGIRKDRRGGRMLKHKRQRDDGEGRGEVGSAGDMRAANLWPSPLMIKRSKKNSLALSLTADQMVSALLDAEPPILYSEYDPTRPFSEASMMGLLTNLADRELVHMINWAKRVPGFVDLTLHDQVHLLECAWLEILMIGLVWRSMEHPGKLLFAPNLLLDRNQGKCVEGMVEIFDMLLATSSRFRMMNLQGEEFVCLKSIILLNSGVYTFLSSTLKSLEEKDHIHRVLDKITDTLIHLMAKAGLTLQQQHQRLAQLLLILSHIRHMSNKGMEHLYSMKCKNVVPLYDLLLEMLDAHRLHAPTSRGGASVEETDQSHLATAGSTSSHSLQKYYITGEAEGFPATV
Protocol Description: Breast Cancer Cell ER-α In-Cell Western Assay (SP1)
Type: cell-based
Test Context: MCF7 cells, 4 hours; 100-{100*[(100-% ER level of Example)/(100-% ER level of Fulvestrant)]}
Observable: ER-α In-Cell Western Assay (SP1): % ER-α remaining relative to Fulvestrant (%)
All answers are understood in %, so give the number only.

Molecule	Experimental Target	Value Reported
CC1=C(c2ccc(F)c(F)c2)C(c2ccc(OC[C@H](C)N3CC[C@@H](C)C3)cc2)Oc2ccc(O)cc21 (stereo partly shown) [reference compound]	ER-α (Homo sapiens, UniProt P03372)	14

Q: # query: ER-α In-Cell Western Assay (SP1): % ER-α remaining relative to Fulvestrant | item CC1=C(c2cc(F)c(F)c(F)c2)C(c2ccc(OCCN3CC(CF)C3)cc2)Oc2ccc(O)cc21 (stereo not shown) | system: ER-α (Homo sapiens, UniProt P03372)
Ans: 0

Q: Provide the documented ER-α In-Cell Western Assay (SP1): % ER-α remaining relative to Fulvestrant with ER-α (Homo sapiens, UniProt P03372) as the system for CC1=C(c2ccc(F)c(Cl)c2)C(c2ccc(OCCN3CC(CF)C3)cc2)Oc2ccc(O)cc21 (stereo not shown)
Ans: 2

Q: Lab note: need ER-α In-Cell Western Assay (SP1): % ER-α remaining relative to Fulvestrant for CC1=C(c2ccc(Cl)cc2)C(c2ccc(OCCN3CC(CF)C3)cc2)Oc2cc(O)ccc21 (stereo not shown) on ER-α (Homo sapiens, UniProt P03372), anyone have it?
Ans: 3

----------
compounds and their reported ER-α In-Cell Western Assay (SP1): % ER-α remaining relative to Fulvestrant
Experimental Target: ER-α (Homo sapiens, UniProt P03372)
Construct: endogenous in cells; host or cells: MCF7
Protocol Description: Breast Cancer Cell ER-α In-Cell Western Assay (SP1)
Type: cell-based
Test Context: MCF7 cells, 4 hours; 100-{100*[(100-% ER level of Example)/(100-% ER level of Fulvestrant)]}

Compound	Experimental Target	Value Reported
CC1=C(c2ccc(C(F)(F)F)cc2)C(c2ccc(OCCN3CC(CF)C3)cc2)Oc2ccc(O)cc21 (centres unmarked)	ER-α (Homo sapiens, UniProt P03372)	8%
CC1=C(c2ccc(Cl)cc2)C(c2ccc(OCCN3CC(CF)C3)cc2)Oc2ccc(O)cc21 (centres unmarked)	ER-α (Homo sapiens, UniProt P03372)	3%
CC1=C(c2ccc(Cl)c(F)c2)C(c2ccc(OCCN3CC(CF)C3)cc2)Oc2ccc(O)cc21 (centres unmarked)	ER-α (Homo sapiens, UniProt P03372)	1%
CC1=C(c2ccc(F)cc2)C(c2ccc(OC[C@H](C)N3CC[C@@H](C)C3)cc2)Oc2ccc(O)cc21 (some centres unmarked) [reference compound]	ER-α (Homo sapiens, UniProt P03372)	18%
CC1=C(c2ccc(F)cc2)C(c2ccc(OCCN3CC(CF)C3)cc2)Oc2cc(O)ccc21 (centres unmarked)	ER-α (Homo sapiens, UniProt P03372)	2%
CC1=C(c2ccc(F)cc2)[C@@H](c2ccc(OC[C@H](C)N3CC[C@@H](C)C3)cc2)Oc2ccc(O)cc21 [reference compound]	ER-α (Homo sapiens, UniProt P03372)	13%
CC1=C(c2ccc(F)cc2)[C@H](c2ccc(OC[C@H](C)N3CC[C@@H](C)C3)cc2)Oc2ccc(O)cc21 [reference compound]	ER-α (Homo sapiens, UniProt P03372)	16%

Q: API: value(readout=ER-α In-Cell Western Assay (SP1): % ER-α remaining relative to Fulvestrant, system=ER-α (Homo sapiens, UniProt P03372)) for record CC1=C(c2ccc(Cl)cc2)C(c2ccc(OC[C@H](C)N3CC[C@@H](C)C3)cc2)Oc2ccc(O)cc21 (some centres unmarked) [reference compound]
Ans: 15%
